pIC50: −log10 of the molar value.
Across several publications, the following pIC50 results were reported for Hepatocyte growth factor receptor (Homo sapiens).

Study these solved cases before continuing.
CCOc1ccn(-c2ccc(F)cc2)c(=O)c1C(=O)Nc1ccc(-c2ccc3nc(N)sc3n2)c(C)c1	5.28
Nc1nccc(Oc2ccc(NC(=O)c3ncn(-c4ccccc4)c3C(F)(F)F)cc2F)c1I	5.30 to 6.30
CC(O)C#Cc1c(Oc2c(F)cc(NC(=O)c3cnn(-c4ncccc4F)c3C(F)(F)F)cc2F)ccnc1N (stereo not shown)	6.30 to 7.30
Cc1c(C(=O)Nc2ccc(Oc3ccnc4[nH]c(=O)n(C(C)C)c34)c(F)c2)nnn1-c1ccccc1	< 5.30
CCOc1ccn(-c2ccc(F)cc2)c(=O)c1C(=O)Nc1ccc(-c2ccc3c(N)n[nH]c3c2)c(F)c1	6.30
CC(C)c1c(Oc2c(F)cc(NC(=O)c3cnn(-c4ccccc4)c3C(F)(F)F)cc2F)ccnc1N	5.30 to 6.30

Ask | State recorded pIC50 with Hepatocyte growth factor receptor (Homo sapiens), entry "Cc1ccnc(-n2ncc(C(=O)Nc3ccc(Oc4ccnc5[nH]c(=O)n(C(C)C)c45)c(F)c3)c2C(F)(F)F)n1" , no comment.
Reply | 5.30 to 6.30

---

This section presents IC50 values reported for Hepatocyte growth factor receptor (Homo sapiens, UniProt P08581) in the literature.

Nc1nccc(-c2cc(Oc3ccc(NC(=O)c4cc(C5CC5)cn(-c5ccc(F)cc5)c4=O)cc3F)ccc2O)n1	0.064 µM

Ask | Look up Hepatocyte growth factor receptor (Homo sapiens, UniProt P08581) data: IC50 of "CCc1c(C(=O)Nc2ccc(Oc3ccnc4[nH]c(=O)[nH]c34)c(F)c2)cnn1-c1ccccc1" , then report it.
Reply | > 5 µM

Ask | Answer briefly: IC50 recorded on Hepatocyte growth factor receptor (Homo sapiens, UniProt P08581) for "Nc1nccc(Oc2ccc(NC(=O)c3cnn(-c4ccccc4)c3N)cc2F)c1Cl"
Reply | > 5 µM

Ask | Report IC50 under test system Hepatocyte growth factor receptor (Homo sapiens, UniProt P08581) for "CC(C)n1c(=O)[nH]c2nccc(Oc3ccc(NC(=O)c4cnn(C5CCCCC5)c4C(F)(F)F)cc3F)c21" .
Reply | 0.5 to 5 µM

Ask | Lab note: record IC50 of "N#Cc1c(Oc2c(F)cc(NC(=O)c3cnn(-c4ncccc4Cl)c3C(F)(F)F)cc2F)ccnc1N" tested on Hepatocyte growth factor receptor (Homo sapiens, UniProt P08581).
Reply | 0.05 to 0.5 µM

Ask | Please look at "Nc1ncnc(Oc2ccc(NC(=O)c3cnn(-c4cc(F)ccn4)c3C(F)(F)F)cc2F)c1Cl" and tell me its recorded IC50 on Hepatocyte growth factor receptor (Homo sapiens, UniProt P08581).
Reply | > 5 µM

Ask | Report IC50 from Hepatocyte growth factor receptor (Homo sapiens, UniProt P08581) testing of "CC(C)n1c(=O)[nH]c2nccc(Oc3ccc(NC(=O)c4cccc(Br)c4C(F)(F)F)cc3F)c21"
Reply | > 5 µM

Ask | Name the value of IC50 reported for "Cc1ccc(-n2ncc(C(=O)Nc3ccc(Oc4ccnc(N)c4Cl)c(F)c3)c2C(F)(F)F)nc1" when tested on Hepatocyte growth factor receptor (Homo sapiens, UniProt P08581).
Reply | > 5 µM

Ask | // output IC50; input "O=C(Nc1ccc(F)cc1)C1(C(=O)Nc2ccc(Oc3ccc(O)c(-c4ccncn4)c3)c(F)c2)CC1" ; system Hepatocyte growth factor receptor (Homo sapiens, UniProt P08581)
Reply | 0.281 µM

Ask | Lab note: record IC50 of "COc1cccnc1-n1ncc(C(=O)Nc2ccc(Oc3ncnc(N)c3Cl)c(F)c2)c1C(F)(F)F" tested on Hepatocyte growth factor receptor (Homo sapiens, UniProt P08581).
Reply | > 5 µM

Ask | Return reported IC50 for target or system Hepatocyte growth factor receptor (Homo sapiens, UniProt P08581), item "Cc1nn(-c2ccccc2)c(C)c1C(=O)Nc1ccc(Oc2ccnc3[nH]c(=O)[nH]c23)c(F)c1" .
Reply | > 5 µM

Ask | Send back Hepatocyte growth factor receptor (Homo sapiens, UniProt P08581) IC50 of "Cn1cc(-c2cc(C(=O)Nc3ccc(-c4ccc(O)c(-c5ccnc(N)n5)c4)c(F)c3)c(=O)n(-c3ccc(F)cc3)c2)cn1" only.
Reply | 2.23 µM

Ask | Please tell me the measured IC50 for "CCOc1cccnc1-n1ncc(C(=O)Nc2ccc(Oc3ccnc4[nH]c(=O)n(C(C)C)c34)c(F)c2)c1C(F)(F)F" ; system: Hepatocyte growth factor receptor (Homo sapiens, UniProt P08581).
Reply | 0.5 to 5 µM

Ask | Fill in: IC50 on Hepatocyte growth factor receptor (Homo sapiens, UniProt P08581), entry O=C(Nc1ccc(Oc2ccnc3[nH]c(=O)n(C4CCOC4)c23)c(F)c1)c1cnn(-c2ccccc2)c1C(F)(F)F (stereo not shown)
Reply | 0.5 to 5 µM

Ask | Consider the compound "CCc1ccnc(-n2ncc(C(=O)Nc3ccc(Oc4ccnc5[nH]c(=O)n(C(C)C)c45)c(F)c3)c2C(F)(F)F)c1" tested on Hepatocyte growth factor receptor (Homo sapiens, UniProt P08581); state its IC50.
Reply | 0.5 to 5 µM

Ask | State recorded IC50 with Hepatocyte growth factor receptor (Homo sapiens, UniProt P08581), entry "Nc1ncnc(Oc2ccc(NC(=O)c3cnn(-c4ncccc4F)c3C(F)(F)F)cc2F)c1Cl" , no comment.
Reply | 0.5 to 5 µM

Ask | Print Hepatocyte growth factor receptor (Homo sapiens, UniProt P08581) IC50 for "Nc1ncnc(Oc2ccc(NC(=O)c3cnn(-c4ncccn4)c3C(F)(F)F)cc2F)c1Cl" .
Reply | > 5 µM
